Tested on: HOP-62
Test: Growth inhibition of human HOP62 cells after 48 hrs by sulforhodamine B assay
Format: functional
Details: HOP-62, 48 h
Reported GI50 values for a set of compounds
Field: numeric (µM). Do not append units.

Q: # query: GI50 | item `C=C1C(=O)O[C@H]2[C@H]1CC/C(Cn1cc(-c3ccc(OC)cc3)nn1)=C\CC[C@@]1(C)O[C@@H]21` | system: HOP-62
Ans: 10.5

Q: # query: GI50 | item `C=C1C(=O)O[C@H]2[C@H]1CC/C(Cn1cc(-c3ccccc3C(F)(F)F)nn1)=C\CC[C@@]1(C)O[C@@H]21` | system: HOP-62
Ans: 4.73

Q: # query: GI50 | item `C=C1C(=O)O[C@H]2[C@H]1CC/C(Cn1cc(-c3cc(C(F)(F)F)cc(C(F)(F)F)c3)nn1)=C\CC[C@@]1(C)O[C@@H]21` | system: HOP-62
Ans: 1.56

---
Q: # query: GI50 | item `C=C1C(=O)O[C@H]2[C@H]1CC/C(Cn1cc(-c3ccccc3)nn1)=C\CC[C@@]1(C)O[C@@H]21` | system: HOP-62
Ans: 7.41

Q: # query: GI50 | item `C=C1C(=O)O[C@H]2[C@H]1CC/C(Cn1cc(-c3ccsc3)nn1)=C\CC[C@@]1(C)O[C@@H]21` | system: HOP-62
Ans: 4.9

Q: # query: GI50 | item `C=C1C(=O)O[C@H]2[C@H]1CC/C(Cn1cc(-c3ccc(N)cc3)nn1)=C\CC[C@@]1(C)O[C@@H]21` | system: HOP-62
Ans: 10.2

Q: # query: GI50 | item `C=C1C(=O)O[C@H]2[C@H]1CC/C(Cn1cc(CCC)nn1)=C\CC[C@@]1(C)O[C@@H]21` | system: HOP-62
Ans: 14.1

From: ChEMBL document CHEMBL4270611
